# STUDY_TARGET: CD3 subunits (CD3E, CD3G, CD3D, CD3Z) (human, UniProt P07766 23-207; P09693 23-182; P04234 22-171; P20963 22-164)
# Sequence (P07766 23-207, chain 1 of 4): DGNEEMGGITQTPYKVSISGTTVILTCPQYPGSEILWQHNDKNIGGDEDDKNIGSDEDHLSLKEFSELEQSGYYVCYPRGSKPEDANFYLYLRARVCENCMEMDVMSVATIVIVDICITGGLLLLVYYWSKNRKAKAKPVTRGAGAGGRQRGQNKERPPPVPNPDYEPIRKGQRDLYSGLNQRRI
# Sequence (P09693 23-182, chain 2 of 4): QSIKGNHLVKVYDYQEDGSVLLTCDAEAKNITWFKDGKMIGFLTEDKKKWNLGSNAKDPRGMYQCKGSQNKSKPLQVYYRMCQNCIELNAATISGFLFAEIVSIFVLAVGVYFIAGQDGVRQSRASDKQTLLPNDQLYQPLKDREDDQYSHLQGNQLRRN
# Sequence (P04234 22-171, chain 3 of 4): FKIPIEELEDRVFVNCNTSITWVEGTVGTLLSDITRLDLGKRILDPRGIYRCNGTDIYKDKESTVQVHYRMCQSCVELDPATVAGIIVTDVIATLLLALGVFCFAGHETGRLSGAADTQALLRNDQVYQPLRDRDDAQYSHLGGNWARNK
# Sequence (P20963 22-164, chain 4 of 4): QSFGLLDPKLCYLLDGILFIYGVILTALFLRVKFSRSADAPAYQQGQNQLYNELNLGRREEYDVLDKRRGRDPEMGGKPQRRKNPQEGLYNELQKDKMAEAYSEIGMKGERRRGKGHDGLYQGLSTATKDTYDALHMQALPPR
# PROCEDURE_SUMMARY: cell-based or functional assay
OUTCOME_MEASURE: CD3-recruiting activity (CD3-positive proportion, N=3), CD3-stably expressing 293T cells

Completed entries (count: 2):
{"columns": ["BINDER", "OBSERVED_RESULT"],
 "data": [
  ["modified TCR consisting of β1 and αCR (TCR) TCR alpha: NIQNPDPAVYQLRDSKSSDKSVCLFTDFDSQTNVSQSKDSDVYITDKTVLDMRSMDFKSNSAVAWSNKSDFACANAFNNSIIPEDTFFPSPESSCDVKLVEKSFETDTNLNFQNLSVIGFRILLLKVAGFNLLMTLRLWSS TCR beta: SEAEISHTQKATLVCLATGFYPDHVELSWWVNGKEVHSGVSTDPQPLKEQPALNDSRYCLSSRLRVSATFWQNPRNHFRCQVQFYGLSENDEWTQDRAKPVTQIVSAEAWGRADCGFTSESYQQGVLSATILYEILLGKATLYAVLVSALVLMAMVKRKDSRG", "≥ 20%"],
  ["modified TCR consisting of β9 and α10 (TCR) TCR alpha: IPEDTFFPSPESSCDVKLVEKSFETDTNLNFQNLSVIGFRILLLKVAGFNLLMTLRLWSS TCR beta: FRCQVQFYGLSENDEWTQDRAKPVTQIVSAEAWGRADCGFTSESYQQGVLSATILYEILLGKATLYAVLVSALVLMAMVKRKDSRG", "≥ 20%"]
]}

// CD3-recruiting activity (CD3-positive proportion, N=3), CD3-stably expressing 293T cells lookup, key: modified TCR consisting of β11 and α5 (TCR) TCR alpha: LDMRSMDFKSNSAVAWSNKSDFACANAFNNSIIPEDTFFPSPESSCDVKLVEKSFETDTNLNFQNLSVIGFRILLLKVAGFNLLMTLRLWSS TCR beta: EWTQDRAKPVTQIVSAEAWGRADCGFTSESYQQGVLSATILYEILLGKATLYAVLVSALVLMAMVKRKDSRG
≥ 20%
